Where do the numbers come from? From patent US20230372448A1.

Molecular target: T1, human GIP receptor (human, UniProt P48546 22-466)
T1 sequence (looked up): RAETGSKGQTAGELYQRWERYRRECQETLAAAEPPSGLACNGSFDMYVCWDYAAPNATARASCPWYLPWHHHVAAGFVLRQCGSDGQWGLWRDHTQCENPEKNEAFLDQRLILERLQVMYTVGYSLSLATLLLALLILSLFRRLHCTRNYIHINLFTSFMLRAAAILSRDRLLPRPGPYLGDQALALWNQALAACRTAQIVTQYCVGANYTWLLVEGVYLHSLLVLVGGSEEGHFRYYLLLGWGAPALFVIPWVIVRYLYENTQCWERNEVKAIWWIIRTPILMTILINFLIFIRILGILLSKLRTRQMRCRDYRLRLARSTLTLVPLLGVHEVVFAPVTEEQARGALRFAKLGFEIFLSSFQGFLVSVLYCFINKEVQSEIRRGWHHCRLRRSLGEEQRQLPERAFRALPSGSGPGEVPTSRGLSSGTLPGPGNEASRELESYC
Assay: cell-based or functional assay
Positions of bridges follow the written chain, without caps; N, C: chain ends. Non-standard residues stand in square brackets, D forms with d. No end group written: not given here. Aib = CC(C)(N)C(=O)O
PROPERTY_MEASURED: In vitro activity (%) compared with native peptide: vs GIP

> print(dat)
                                     binder  reading.unit  reported.measurement
1  Y[Aib]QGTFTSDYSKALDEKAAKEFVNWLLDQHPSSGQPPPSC (bridge 16-20) [triple agonist of SEQ ID NO: 101]             %                  40.1
2  Y[Aib]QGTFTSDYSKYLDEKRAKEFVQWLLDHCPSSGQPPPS (bridge 16-20; not fully specified) [triple agonist of SEQ ID NO: 96]             %                   5.2
3  Y[Aib]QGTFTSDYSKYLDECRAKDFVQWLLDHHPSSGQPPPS (bridge 16-20; not fully specified) [triple agonist of SEQ ID NO: 66]             %                  17.2
4  Y[Aib]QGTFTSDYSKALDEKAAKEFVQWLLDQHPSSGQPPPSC (bridge 16-20) [triple agonist of SEQ ID NO: 100]             %                   118
5  Y[Aib]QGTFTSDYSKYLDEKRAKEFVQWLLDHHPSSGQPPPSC (bridge 16-20; not fully specified) [triple agonist of SEQ ID NO: 42]             %                   7.8
